Origin of the recorded values: paper PMC3594281

# tested.target: Hyper-IL-6 (sIL-6R/IL-6 fusion) (UniProt P08887 20-323+P05231:30-212, internal_change)
# run.description: filter binding
measured.endpoint: Kd (nM)
Give the quantity in nM, number only.

Exercise: I have this binder here, GGGAGGGAGGGAGGGA (structured_DNA) [AID-1+A] , and I need its recorded Kd.
Solution: 691
